system: SK-MEL-5 melanoma; experiment: NCI tumour cell line growth inhibition, 48 h
MEASURE: TGI (µM)
Form entry: value (µM) — number only.

stdin: Param item = `CCOC(=O)c1c(N2CCCC2)nsc1Nc1ccc(F)cc1` ; retrieve measured TGI.
stdout: 34.3

stdin: Try this compound too: `CC#C[C@]1(O)CC[C@H]2[C@@H]3CCC4=CC(=O)CCC4=C3[C@@H](c3ccc4c(c3)OCO4)C[C@@]21C`
stdout: 199

stdin: Follow-up item: `CN(C)CC(=O)Nc1ccc(Cn2nnc3c2C(=O)c2nnn(Cc4ccc(NC(=O)CN(C)C)cc4)c2C3=O)cc1`
stdout: 0.286

stdin: Further, for `O=C(/C=C/c1ccccc1)c1cc(Br)ccc1O` ?
stdout: 34.6

---

system: HL-60(TB) leukemia; test: NCI tumour cell line growth inhibition, 48 h
MEASURE: TGI

For orientation, consider the following solved cases.
INSERT INTO assay_data (compound, observed) VALUES
  ('Cc1[nH]ccc2c1[nH]c1cc(=O)ccc12', '> 100 µM'),
  ('CC1=C(Oc2ccccc2)C(CCC(=O)O)c2c(O)cc(Cl)c(O)c21 (centres undefined)', '> 100 µM'),
  ('COc1cccc(N=Cc2cc3cc(Br)ccc3nc2Cl)c1', '> 50 µM'),
  ('Cn1c(=S)[nH]c2sc3c(c2c1=O)CCSC3', '43.3 µM'),
  ('Cn1c(=O)c2c(nc(-n3nc(-c4ccc(Cl)cc4)cc3N)n2C)n(C)c1=O', '> 100 µM');

stdin: I am curious: what TGI value has been reported for CC[C@@H](C(=O)O)C1CC[C@H](C)C([C@@H](C)[C@H](O)[C@H](C)C(=O)[C@H](CC)C2O[C@]3(C=C[C@@H](O)[C@]4(CC[C@@](C)(C5CC[C@](O)(CC)[C@H](C)O5)O4)O3)[C@H](C)C[C@@H]2C)O1 (some centres undefined) ?
stdout: 0.347 µM

stdin: How about `O=C(CN1CCOCC1)Nc1nc(-c2ccc(Cl)cc2)cs1` ?
stdout: 44.9 µM

stdin: Another compound to look at: `O=C1c2c(ccc3c2CCCC3)CC12Cc1ccc3c(c1C2=O)CCCC3`
stdout: > 100 µM

stdin: Would you kindly repeat that for O=C1CC(c2ccc(O)cc2)C2(O1)C(=O)OC(C(O)CO)C2O (centres undefined) ?
stdout: > 100 µM

---

test system: SNB-75 CNS; test: NCI tumour cell line growth inhibition, 48 h
MEASURE: TGI

INSERT INTO results (compound, measure, observed) VALUES
  ('CCOC(=O)c1c(N)sc2c1C(C(=O)OCC)CC2 (stereo unspecified)', 'TGI', '> 100 µM'),
  ('O=C(/C=C/c1ccccc1)CCN1CCN(CCC(=O)/C=C/c2ccccc2)CC1', 'TGI', '29.7 µM'),
  ('O=C(COc1ccc2c(=O)cc(-c3ccccc3)oc2c1)N1CCN(c2ccccc2)CC1', 'TGI', '> 100 µM'),
  ('C=CCNc1nc(C#N)c(N)s1', 'TGI', '> 10 µM'),
  ('C=CCOc1cccc(/C=C2\SC(=Nc3ccc(O)cc3)NC2=O)c1', 'TGI', '0.668 µM'),
  ('NNC(=O)/C(=C/c1ccc(Cl)cc1Cl)NC(=O)c1ccccc1', 'TGI', '> 100 µM');

stdin: Reported TGI for `O=C(CN1CCOCC1)Nc1nc(-c2ccc(Cl)cc2)cs1` : what is it?
stdout: 62.6 µM

stdin: Would you kindly repeat that for `C[C@H](OCc1ccccc1)C(=O)N1CCS(=O)(=O)N2CCC[C@H]2C1=O` ?
stdout: > 100 µM

stdin: Now the compound `Cn1cccc1-c1cc(-c2cccs2)nc(N)c1C#N`
stdout: > 100 µM

stdin: # repeat for CC(NNC(=O)c1ccncc1)c1ccc(F)cc1 (stereo unspecified)
stdout: > 100 µM

stdin: Same for `COc1ccc(-c2n/c(=C\c3c(O)[nH]c4ccc(OC)cc34)cc3c2=Nc2ccccc2-3)cc1`
stdout: 2.99 µM

---

tested on: CCRF-CEM leukemia; assay: NCI tumour cell line growth inhibition, 48 h
MEASURE: GI50

Examples with answers:
INSERT INTO assay_data (molecule, tested_system, measure, observed) VALUES
  ('N#Cc1c(N2CCCC2)[nH]c(=O)c(C(c2c(Cl)cccc2Cl)c2c(O)c(C#N)c(N3CCCC3)[nH]c2=O)c1O', 'CCRF-CEM leukemia', 'GI50', '1.91 µM'),
  ('Cn1cccc1-c1cc(-c2cccs2)nc(N)c1C#N', 'CCRF-CEM leukemia', 'GI50', '> 100 µM'),
  ('Cc1ccccc1[P+](Cc1ccccc1)(c1ccccc1)c1ccccc1', 'CCRF-CEM leukemia', 'GI50', '2.1 µM'),
  ('NCCOCCOCCNc1nc(Cc2ccccc2)nc(NCCCN2CCCC2=O)n1', 'CCRF-CEM leukemia', 'GI50', '> 100 µM'),
  ('CC#C[C@]1(O)CC[C@H]2[C@@H]3CCC4=CC(=O)CCC4=C3[C@@H](c3ccc4c(c3)OCO4)C[C@@]21C', 'CCRF-CEM leukemia', 'GI50', '103 µM');

stdin: # GI50 lookup, item `Cc1ccc(-c2cn3ccnc3c(-c3ccc(Cl)cc3)n2)cc1`
stdout: 0.122 µM

stdin: Continue with `CN1CCC(n2cnc(-c3ccc(F)cc3)c2-c2ccnc(NCCO)n2)CC1`
stdout: > 25 µM

stdin: What do you have for `C=CCC[CH2][Sn]([c]1ccccc1)([c]1ccccc1)[c]1ccccc1` ?
stdout: 1.01 µM

stdin: Can you handle `COc1ccc(OC)c(/C=C2\SC(=S)NC2=O)c1` next?
stdout: 42.4 µM

---

test system: SK-OV-3 ovarian; experiment: NCI tumour cell line growth inhibition, 48 h
GI50: recorded values

INSERT INTO assay_data (molecular_string, tested_system, observed) VALUES
  ('CN(C)CCNc1c2c(c(NCCN(C)C)c3[nH]ccc13)C(=O)c1ccccc1C2=O', 'SK-OV-3 ovarian', '5.57 µM'),
  ('NCCOCCOCCNc1nc(Cc2ccccc2)nc(NCCCN2CCCC2=O)n1', 'SK-OV-3 ovarian', '> 100 µM');

stdin: Report GI50 for `COc1ccc(OC)c(/C=C2\SC(=S)NC2=O)c1` please.
stdout: 33.1 µM

---

tested on: UACC-257 melanoma; test: NCI tumour cell line growth inhibition, 48 h
MEASURE: TGI (µM)
Your answer should be a plain number; it is taken to be in µM.

INSERT INTO assay_data (molecule, observed) VALUES
  ('CCN(CC)CC(C)Nc1ccc([N+](=O)[O-])c2sc3ccccc3c(=O)c12 (stereo not given)', 4.15),
  ('CCCNC(=O)c1cc(NC(=O)c2cc(NC(=O)/C=C/c3ccccc3)c(OC)c(OC)c2)c(OC)c(OC)c1', 52.2),
  ('CCOC(=O)COc1ccccc1/C=C1\CCC(CN(C)C)C1=O (stereo not given)', 16.3),
  ('COc1ccc(-c2n/c(=C\c3c(O)[nH]c4ccc(OC)cc34)cc3c2=Nc2ccccc2-3)cc1', 4.48),
  ('Nc1nc2c(c3ncncc13)C(c1cccc(C(F)(F)F)c1)Cc1ncncc1-2 (stereo not given)', 62.1);

Would you kindly look at the next entry?
stdin: What value of TGI has been recorded for this entry: `N#C/C(=C\c1ccc(O)c(O)c1)C(N)=S`
stdout: 97.7

---

system: MCF7 breast; assay: NCI tumour cell line growth inhibition, 48 h
Listed molecules paired with reported TGI

Before answering, review these 5 worked examples.
INSERT INTO results (molecule, measure, observed) VALUES
  ('COc1ccc2sc3c(NCCCN(C)C)nc4ccccc4c3c(=O)c2c1', 'TGI', '3.4 µM'),
  ('O=C1c2cccnc2C(=O)c2nc3cc(N4CCN(C5CC5)CC4)ccc3nc21', 'TGI', '1.78 µM'),
  ('Oc1cccc2ccc(N/N=C/c3cc(CN4CCCCC4)c(O)c4ncccc34)nc12', 'TGI', '1.28 µM'),
  ('CCOC(=O)c1c2c(n3ccccc13)C(=O)c1ccccc1C2=O', 'TGI', '> 100 µM'),
  ('CC(=O)OCOC(=O)CN(CC(=O)OCOC(C)=O)Cc1cc2c(cc1OC(C)=O)Oc1cc(OC(C)=O)c(CN(CC(=O)OCOC(C)=O)CC(=O)OCOC(C)=O)cc1C21OC(=O)c2ccccc21', 'TGI', '7.73 µM');

stdin: Using the record for CCSCCC(N)C(=O)O (stereo unspecified) , report its TGI.
stdout: > 100 µM

stdin: Next up: `O=C(/C=C(\O)c1ccccc1)C(=O)NNc1ccc([N+](=O)[O-])cc1[N+](=O)[O-]`
stdout: > 100 µM

stdin: Ok, now `O=S(=O)(O)c1ccc2cccc(N=Nc3c(O)ccc4ccccc34)c2c1`
stdout: > 100 µM

stdin: Queued: `CCOC(=O)N(Cc1cccs1)c1cc(OC)c(OC)c(OC)c1`
stdout: > 100 µM

stdin: Param item: `O=C(NCCO)Nc1ccc(-c2nc(N3CCOCC3)c3cccn3n2)cc1`
stdout: > 100 µM

stdin: Would you kindly repeat that for `[N-]=[N+]=Nc1c(C=O)c(=O)n2c3c(cccc13)CCC2` ?
stdout: 10.6 µM

stdin: Same question for `COc1ccc2c(c1)cn1c3ccc(O)cc3nc(N)c21` please.
stdout: 4.99 µM

stdin: And for `CCc1nccc2c1nc(-c1nonc1N)n2CC` ?
stdout: > 25 µM

stdin: Same thing, different molecule: `O=C1c2ccccc2S(=O)(=O)c2c1cccc2[N+](=O)[O-]`
stdout: 3.31 µM

stdin: How about COc1ccc(/C=C2\CCCC3=C2N=C2SC(C)=NN2C3c2ccc(OC)c(OC)c2)cc1OC (stereo unspecified) ?
stdout: > 100 µM
